- method_description: NCI Yeast Anticancer Drug Screen. Data for the cln2 rad14 strain (AID 165)
- run_parameters: S. cerevisiae cln2 rad14 strain, at 50.0 µM
This is part of a sample that, as a whole, favours compounds with a hit. Of some 79,000 tested, about 15% had one in any assay. Activity calls are given as the source filed them. Rule as the data show it: active = growth inhibition above about 70%; inactive = the rest.
Classes used: T for active, F for inactive

1) O=C(/C=C/c1ccccc1)Nc1ccc([N+](=O)[O-])cc1Cl ... F
2) CC(=O)NNc1nc(C)c(C(/C=C/c2ccc(NC(C)=O)cc2)=N/NS(=O)(=O)c2ccc(C)cc2)s1 ... F
3) NC(=O)c1cn[nH]c1N ... F
4) Cn1ccc(=O)c2ccccc21 ... F
5) COc1cc(NN=C(C#N)C#N)c(OC)cc1Cl ... F
6) NC(=S)N/N=C\c1ncccc1OCc1cccc(N)c1 ... F
7) CCC(C)(NC(N)=O)c1ccccc1 (stereo unspecified) ... F
8) C[N+](C)(C)CCCc1ccc2oc3ccccc3c2c1 ... F
9) N/N=C1/CCCc2nonc21 ... F
10) O=C(O)CCCc1ccc2sc3ccccc3c2c1 ... F
11) C#Cc1cccc(N=Cc2cc(Br)cc(OC)c2O)c1 ... F
12) O=C(Oc1c(Cl)cc([N+](=O)[O-])cc1[N+](=O)[O-])Sc1ccccc1 ... T
13) CCN=C(C#N)NCC ... F
14) CCOC(=O)c1ccc2c(c1)CCC(C)(C)O2 ... F
15) Nc1ccc(C(=O)O)cc1O ... F
16) Cc1cccc(Cl)c1N=Nc1c(C)nc(N)nc1-c1ccccc1 ... F
17) Cc1nc2ccccc2c(=O)n1NC(=S)Nc1ccccc1 ... F
18) CCC(C)[N-]c1cccc[n+]1[O-].CCC(C)[N-]c1cccc[n+]1[O-].[Cu+2] (stereo unspecified) ... F
19) CCOC(=O)C(=O)C1CCCC1=O (stereo unspecified) ... F
20) O=C(Oc1ccc(OC(=O)c2ccccc2)c(C2CCCCCC2)c1)c1ccccc1 ... F
21) NC(=O)CCCc1ccc2oc3ccccc3c2c1 ... F
22) COc1cc(O)c2c(c1)C(=O)c1cc3c(c(O)c1C2=O)C(O)C(OC)C(C)(O)C3O (stereo unspecified) ... F
23) COc1ccc(/C(Cl)=C/c2cc(OC)ccc2OC)cc1 ... F
24) C=CCCCCCCCCC(=O)N1CCN(C)CC1 ... F
25) CCO/C=C(/C#N)C(=O)OCC ... F
26) COc1ccc(NC(=O)C2C(=O)N(c3ccc(OC)cc3)C(=O)/C2=N\NC(N)=O)cc1 (stereo unspecified) ... F
27) COC(=O)Cc1ccccn1 ... F
28) COc1cc(C)cc(O)c1C=O ... F
29) Cc1ccc(C2(c3ccc(C)cc3)OCC(C)(CBr)CO2)cc1 ... F
30) CC(C)SC(CC(O)C(O)COC(=O)c1ccccc1)SC(C)C (stereo unspecified) ... F
31) c1ccc(C2=Nc3ccccc3-c3ccccc3N2)cc1 ... F
32) OC(CCN1CC2CCC(CC2)C1)(Cc1ccccc1)c1ccc(F)cc1 (stereo unspecified) ... F
33) CN(C)CC1CC(O)C(CN(C)C)CC1O (stereo unspecified) ... F
34) CCOC(=O)c1cc(/C=C/C(C)=C/C(=O)OC)oc1C ... F
35) COc1ccc(-c2oc3cc(OC)c(OC)c(OC)c3c(=O)c2O)cc1O ... F
36) O=C1OI(=O)(O)c2ccccc21 (stereo unspecified) ... F
